Test system: 379773-124-R-J2-PDC complex spheroids, viability % test/control
Assay: Anticancer human tumor 379773-124-R-J2-PDC patient-derived endometrial carcinoma cell line growth inhibition [CLK]; active = viability on the fitted dose curve at most 10% of control; inactive = the rest
Details: second compound 0.1 µM; first compound 0.0316 µM
Entry note: the call must match one of T for active, F for inactive

Prompt line: Record request — test call for Cn1ncnc1[C@H]1c2n[nH]c(=O)c3cc(F)cc(c23)N[C@@H]1c1ccc(F)cc1 + CN1CCN(c2cc(C(=O)Nc3cc4cc(-c5cnn(C)c5)ccc4cn3)ccn2)CC1
Response line: F

* * *

Tested on: 379773-124-R-J2-PDC complex spheroids, viability % test/control
Assay: Anticancer human tumor 379773-124-R-J2-PDC cell line growth inhibition [CLK];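 note: compound exposure lasted seven days before the viability readout; 100% = DMSO vehicle control wells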
Conditions: second compound 10 µM; first compound 10 µM; stronger effect = lower value
Excerpt: A high-throughput screen of multi-cell type tumor spheroids was designed to identify active combinations of […] and targeted small molecules. Complex spheroids include a stromal component modeled by human endothelial cells (HUVEC) and fibroblasts modeled by human mesenchymal stem cells (MSCs). […] Compounds. […] If the clinical Cmax for an agent had not been determined, the highest concentration tested was 10 microM. […]
Experimental readout: viability, T/C (%)
Numeric only. Scale: %

// known answers, use as guide
{"columns": ["Compound", "viability, T/C (%)"],
 "data": [
  ["CC1(C)CCC(CN2CCN(c3ccc(C(=O)NS(=O)(=O)c4ccc(NCC5CCOCC5)c([N+](=O)[O-])c4)c(Oc4cnc5[nH]ccc5c4)c3)CC2)=C(c2ccc(Cl)cc2)C1 + CNC(=O)c1ccc(Nc2nc(OC3CCCC3)c3c(-c4ccc5nc(C)oc5c4)c[nH]c3n2)c(OC)c1", 1.59],
  ["CC(=O)O[C@H]1C(=O)[C@@]2(C)[C@H]([C@H](OC(=O)c3ccccc3)[C@]3(O)C[C@H](OC(=O)[C@H](O)[C@@H](NC(=O)c4ccccc4)c4ccccc4)C(C)=C1C3(C)C)[C@]1(OC(C)=O)CO[C@@H]1C[C@@H]2O + CNC(=O)c1ccc(Nc2nc(OC3CCCC3)c3c(-c4ccc5nc(C)oc5c4)c[nH]c3n2)c(OC)c1", 36.1],
  ["CCCS(=O)(=O)Nc1ccc(F)c(C(=O)c2c[nH]c3ncc(-c4ccc(Cl)cc4)cc23)c1F + CN1CCN(c2cc(C(=O)Nc3cc4cc(-c5cnn(C)c5)ccc4cn3)ccn2)CC1", 0.29],
  ["C=C(F)C(=O)N1CCN(c2nc(OCC3CCCN3C)nc3c2CCN(c2cccc4cccc(Cl)c24)C3)CC1CC#N (centres undefined) + CN1CCN(c2cc(C(=O)Nc3cc4cc(-c5cnn(C)c5)ccc4cn3)ccn2)CC1", 0.65],
  ["COc1cccc2c1C(=O)c1c(O)c3c(c(O)c1C2=O)CC(O)(C(=O)CO)CC3OC1CC(N)C(O)C(C)O1 (centres undefined) + CNC(=O)c1ccc(Nc2nc(OC3CCCC3)c3c(-c4ccc5nc(C)oc5c4)c[nH]c3n2)c(OC)c1", 0.23],
  ["Nc1ccn(C2OC(CO)C(O)C2(F)F)c(=O)n1 (centres undefined) + CN1CCN(c2cc(C(=O)Nc3cc4cc(-c5cnn(C)c5)ccc4cn3)ccn2)CC1", 0.13]
]}

Prompt line: // output viability, T/C; input COC1C=CCC(C)C(C)S(=O)(=O)NC(=O)c2ccc3c(c2)N(CC2CCC21)CC1(CCCc2cc(Cl)ccc21)CO3 (centres undefined) + CN1CCN(c2cc(C(=O)Nc3cc4cc(-c5cnn(C)c5)ccc4cn3)ccn2)CC1 ; system 379773-124-R-J2-PDC complex spheroids, viability % test/control
Response line: 0.23

Prompt line: Supply viability, T/C measured with 379773-124-R-J2-PDC complex spheroids, viability % test/control for CCCS(=O)(=O)Nc1ccc(F)c(C(=O)c2c[nH]c3ncc(-c4ccc(Cl)cc4)cc23)c1F + CNC(=O)c1ccc(Nc2nc(OC3CCCC3)c3c(-c4ccc5nc(C)oc5c4)c[nH]c3n2)c(OC)c1 .
Response line: 13.2

Prompt line: Param request: viability, T/C | system 379773-124-R-J2-PDC complex spheroids, viability % test/control | item O=C(c1cc(Cc2n[nH]c(=O)c3ccccc23)ccc1F)N1CCN(C(=O)C2CC2)CC1 + CNC(=O)c1ccc(Nc2nc(OC3CCCC3)c3c(-c4ccc5nc(C)oc5c4)c[nH]c3n2)c(OC)c1
Response line: 6.48

All figures here come from PubChem BioAssay AID2060604.
